B1: library; a variant is named by its letters at N, in order (parent)
chain: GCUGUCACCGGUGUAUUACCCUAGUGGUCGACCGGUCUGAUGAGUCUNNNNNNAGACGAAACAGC

Variants of: B1
Test: normalized RNA/DNA level with ligand (relative to sTRSVctl = 100) (log10 (% of sTRSVctl)); ligand: hypoxanthine (xanthine aptamer); higher = less ribozyme self-cleavage, higher mRNA level
Details: ligand concentration (+) RNA-Seq: 5 mM, HEK293T, reporter: mCherry (pCS4076), ligand present: yes
ENDPOINT LABEL: normalized RNA/DNA level with ligand (log10)
Please give only the number in your answer, with no unit.

GCUGUCACCGGUGUAUUACCCUAGUGGUCGACCGGUCUGAUGAGUCUAUCCUAAGACGAAACAGC [AUCCUA]    1.94
GCUGUCACCGGUGUAUUACCCUAGUGGUCGACCGGUCUGAUGAGUCUCGUCGGAGACGAAACAGC [CGUCGG]    1.9
GCUGUCACCGGUGUAUUACCCUAGUGGUCGACCGGUCUGAUGAGUCUGCUACUAGACGAAACAGC [GCUACU]    1.95
GCUGUCACCGGUGUAUUACCCUAGUGGUCGACCGGUCUGAUGAGUCUUUAGCCAGACGAAACAGC [UUAGCC]    1.95
GCUGUCACCGGUGUAUUACCCUAGUGGUCGACCGGUCUGAUGAGUCUCAAUCAAGACGAAACAGC [CAAUCA]    1.91

Per the records, this variant ( GCUGUCACCGGUGUAUUACCCUAGUGGUCGACCGGUCUGAUGAGUCUAGGGAGAGACGAAACAGC [AGGGAG] ) has normalized RNA/DNA level with ligand (log10) equal to 1.78

Per the records, this variant ( GCUGUCACCGGUGUAUUACCCUAGUGGUCGACCGGUCUGAUGAGUCUACGUACAGACGAAACAGC [ACGUAC] ) has normalized RNA/DNA level with ligand (log10) equal to 1.9
